Entry source: patent US8188059B2

# Tested on: PCSK9 mRNA
# Method Summary: Dose-dependent inhibition of PCSK9 in Hep3B cells with EC50 (Example 19, Table 76)
# Format: cell-based, human
# Setup Conditions: 5 nM
Strand notation (5' to 3'): a small letter for the sugar, then the base; units joined by * are phosphorothioate-linked, units joined directly phosphodiester-linked; [ ] holds rarer units or linkages, { } end groups; capitals alone tell only the bases. e = 2'-O-(2-methoxyethyl) (MOE); [5mC] = 5-methylcytosine; d = 2'-deoxy (DNA)
Value Kind: % Inhibition of PCSK9 (%)
Use % as the unit, but write only the number.

**Q:** // lookup % Inhibition of PCSK9 for 400307 (e[5mC]*eG*dG*d[5mC]*d[5mC]*dG*d[5mC]*dT*dG*dA*d[5mC]*d[5mC]*eA*e[5mC]; antisense) [compound 400307]
**A:** 35

**Q:** // lookup % Inhibition of PCSK9 for 400309 (e[5mC]*e[5mC]*d[5mC]*dG*dG*d[5mC]*d[5mC]*dG*d[5mC]*dT*dG*dA*e[5mC]*e[5mC]; antisense) [compound 400309]
**A:** 49

**Q:** // lookup % Inhibition of PCSK9 for 400353 (antisense eA*e[5mC]*dA*d[5mC]*d[5mC]*d[5mC]*dT*d[5mC]*dA*d[5mC]*d[5mC]*d[5mC]*e[5mC]*e[5mC]) [compound 400353]
**A:** 15

**Q:** // lookup % Inhibition of PCSK9 for 400330 (e[5mC]*e[5mC]*dA*d[5mC]*dG*dT*dG*dG*dG*d[5mC]*dA*dG*e[5mC]*eA; antisense) [compound 400330]
**A:** 8

**Q:** // lookup % Inhibition of PCSK9 for 400331 (eG*e[5mC]*d[5mC]*dA*d[5mC]*dG*dT*dG*dG*dG*d[5mC]*dA*eG*e[5mC]; antisense) [compound 400331]
**A:** 29

**Q:** // lookup % Inhibition of PCSK9 for 400352 (antisense e[5mC]*eA*d[5mC]*d[5mC]*d[5mC]*dT*d[5mC]*dA*d[5mC]*d[5mC]*d[5mC]*d[5mC]*e[5mC]*eA) [compound 400352]
**A:** 7

**Q:** // lookup % Inhibition of PCSK9 for 400327 (eG*eT*d[5mC]*d[5mC]*d[5mC]*d[5mC]*dA*dA*dA*dG*dT*d[5mC]*e[5mC]*e[5mC]; antisense) [compound 400327]
**A:** 5

**Q:** // lookup % Inhibition of PCSK9 for 400308 (e[5mC]*e[5mC]*dG*dG*d[5mC]*d[5mC]*dG*d[5mC]*dT*dG*dA*d[5mC]*e[5mC]*eA; antisense) [compound 400308]
**A:** 31

====

# Tested on: rat DGAT2 mRNA
# Method Summary: Dose-dependent inhibition of DGAT2 in A10 cells, 0.62-150 nM (Example 22, Table 83)
# Format: cell-based
# Setup Conditions: 0.62 nM
Strand notation (5' to 3'): a small letter for the sugar, then the base; units joined by * are phosphorothioate-linked, units joined directly phosphodiester-linked; [ ] holds rarer units or linkages, { } end groups; capitals alone tell only the bases. e = 2'-O-(2-methoxyethyl) (MOE); [5mC] = 5-methylcytosine; d = 2'-deoxy (DNA)
Provide the recorded percent inhibition of rat DGAT2 for the entries that follow.
Reply with just the number.

**Q:** // lookup percent inhibition of rat DGAT2 for 372563 (antisense eA*eG*d[5mC]*d[5mC]*dA*dG*dG*dT*dG*dA*d[5mC]*dA*eG*eA) [compound 372563]
**A:** 0

**Q:** // lookup percent inhibition of rat DGAT2 for 372618 (antisense eG*eT*dG*dG*dT*dA*d[5mC]*dA*dG*dG*dT*d[5mC]*eG*eA) [compound 372618]
**A:** 0

**Q:** // lookup percent inhibition of rat DGAT2 for 372501 (antisense eT*eT*eG*dT*dG*dT*dG*dT*d[5mC]*dT*dT*d[5mC]*dA*e[5mC]*e[5mC]*eA) [compound 372501]
**A:** 1

**Q:** // lookup percent inhibition of rat DGAT2 for 372508 (antisense eA*eG*eT*dT*d[5mC]*d[5mC]*dT*dG*dG*dT*dG*dG*dT*e[5mC]*eA*eG) [compound 372508]
**A:** 0

**Q:** // lookup percent inhibition of rat DGAT2 for 372530 (antisense eT*e[5mC]*eG*dG*d[5mC]*d[5mC]*d[5mC]*d[5mC]*dA*dG*dG*dA*dG*e[5mC]*e[5mC]*e[5mC]) [compound 372530]
**A:** 0

**Q:** // lookup percent inhibition of rat DGAT2 for 372524 (antisense eG*e[5mC]*e[5mC]*dA*dG*dG*d[5mC]*dA*dT*dG*dG*dA*dG*e[5mC]*eT*e[5mC]) [compound 372524]
**A:** 7

**Q:** // lookup percent inhibition of rat DGAT2 for 372586 (antisense eG*eT*dT*d[5mC]*d[5mC]*dT*dG*dG*dT*dG*dG*dT*e[5mC]*eA) [compound 372586]
**A:** 0

**Q:** // lookup percent inhibition of rat DGAT2 for 372503 (antisense eG*e[5mC]*eA*dG*dG*dT*dT*dG*dT*dG*dT*dG*dT*e[5mC]*eT*eT) [compound 372503]
**A:** 7

**Q:** // lookup percent inhibition of rat DGAT2 for 372500 (antisense eG*eT*eG*dT*dG*dT*d[5mC]*dT*dT*d[5mC]*dA*d[5mC]*d[5mC]*eA*eG*e[5mC]) [compound 372500]
**A:** 0

**Q:** // lookup percent inhibition of rat DGAT2 for 372546 (antisense eT*eT*eG*dG*dT*d[5mC]*dT*dT*dG*dT*dG*dA*dT*eT*eG*eT) [compound 372546]
**A:** 0

**Q:** // lookup percent inhibition of rat DGAT2 for 372624 (antisense eT*eG*dG*dT*d[5mC]*dT*dT*dG*dT*dG*dA*dT*eT*eG) [compound 372624]
**A:** 0

**Q:** // lookup percent inhibition of rat DGAT2 for 372580 (antisense eG*eG*dT*dT*dG*dT*dG*dT*dG*dT*d[5mC]*dT*eT*e[5mC]) [compound 372580]
**A:** 0

**Q:** // lookup percent inhibition of rat DGAT2 for 372602 (antisense e[5mC]*e[5mC]*dA*dG*dG*d[5mC]*dA*dT*dG*dG*dA*dG*e[5mC]*eT) [compound 372602]
**A:** 0
